Target: T1, human glucose-dependent insulinotropic polypeptide (GIP) receptor (human, UniProt P48546 22-466)
T1 construct: whole, on cells; Assayed as crude membranes of stably transfected CHO cells; also called hGIPR; human GIP receptor
T1 sequence (looked up): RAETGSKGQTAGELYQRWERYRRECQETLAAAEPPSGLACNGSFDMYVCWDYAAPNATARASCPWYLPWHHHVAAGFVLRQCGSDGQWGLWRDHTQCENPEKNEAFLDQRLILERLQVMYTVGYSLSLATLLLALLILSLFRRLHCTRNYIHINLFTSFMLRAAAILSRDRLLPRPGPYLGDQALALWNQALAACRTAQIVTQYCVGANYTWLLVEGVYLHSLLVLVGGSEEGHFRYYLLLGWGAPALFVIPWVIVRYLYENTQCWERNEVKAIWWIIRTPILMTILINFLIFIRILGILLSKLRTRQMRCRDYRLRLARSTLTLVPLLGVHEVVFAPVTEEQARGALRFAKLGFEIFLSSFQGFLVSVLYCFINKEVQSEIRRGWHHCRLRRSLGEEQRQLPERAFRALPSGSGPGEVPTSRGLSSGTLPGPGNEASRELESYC
Experiment: SPA, displacement of [125I]-GIP from hGIPR membranes, 0.1% bacitracin
Procedure: The binding buffer contains 25 mM HEPES, pH 7.4, 2.5 mM CaCl₂, 1 mM MgCl₂, 0.1% (w/v) bacitracin, 0.003% (w/v) TWEEN®-20, and Roche Complete™ Protease Inhibitors without EDTA. […] Plates are sealed and mixed on a plate shaker (setting 6) for 1 minute and read with a PerkinElmer Trilux MicroBeta® scintillation counter after 2.5 to 12 hours of incubation/settling time at room temperature. […]
Property: Ki; scope: individual binders
Output spec: scalar in nM, unitless text.

- YXEGTFISDYSILLDKKAQXDFVNXLLAQGPSSGAPPPS (D-Ala2; K17((2-[2-(2-Amino-ethoxy)-ethoxy]-acetyl)2-(γ-Glu)-CO-(CH2)16-CO2H); Aib20; 4-Pal25; C-terminal amide) [Example 18]: 0.0331
- YXEGTXISDYSIXLDKKHQXDFVEXLLAGGPSSGAPPPS (Aib2; Iva6; αMeL13; K17((2-[2-(2-Amino-ethoxy)-ethoxy]-acetyl)2-(γ-Glu)-CO-(CH2)18-CO2H); Aib20; 4-Pal25; C-terminal amide) [Example 55]: 0.0331

Consider YXEGTFISDYSILLDKKAQXEFVNWLLEGGPSSGAPPPS (D-Ala2; K17((2-[2-(2-Amino-ethoxy)-ethoxy]-acetyl)2-(γ-Glu)-CO-(CH2)16-CO2H); Aib20; C-terminal amide) [Example 28] . Its measured Ki is 0.0732

Consider YXEGTXISDYSIXLDKKHQXDFVEXLLEGGPSSGAPPPS (Aib2; Iva6; αMeL13; K17((2-[2-(2-Amino-ethoxy)-ethoxy]-acetyl)2-(γ-Glu)-CO-(CH2)18-CO2H); Aib20; 4-Pal25; C-terminal amide) [Example 74] . Its measured Ki is 0.0287

Consider YXEGTFISDYSILLDKKAQXEFVEWLLAGGPSSGAPPPS (D-Ala2; K17((2-[2-(2-Amino-ethoxy)-ethoxy]-acetyl)2-(γ-Glu)-CO-(CH2)16-CO2H); Aib20; C-terminal amide) [Example 29] . Its measured Ki is 0.0569

Consider YXEGTFISDYSILLDKKAQXEFVNWLLAQGPSSGAPPPS (D-Ala2; K17((2-[2-(2-Amino-ethoxy)-ethoxy]-acetyl)2-(γ-Glu)-CO-(CH2)16-CO2H); Aib20; C-terminal amide) [Example 20] . Its measured Ki is 0.0477
